- Test system: Hepatotoxicity
- assayOverview: FDA HLAED, lactate dehydrogenase (LDH) increase
- testSettings: human
measuredProperty: LDH Increase - Number of Reports

1. COCC1=C(C(=O)OC(C)OC(=O)OC(C)C)N2C(=O)[C@@H](NC(=O)/C(=N\OC)c3csc(N)n3)[C@H]2SC1 (stereo partly drawn) = < 4
2. Nc1ncnc2c1ncn2[C@@H]1O[C@H](CO)[C@@H](O)[C@H]1O = < 4
3. O=C1CC2(CCCC2)CC(=O)N1CCCCN1CCN(c2ncccn2)CC1 = < 4

====

- System: Hepatotoxicity
- assayOverview: FDA HLAED, alkaline phosphatase increase
- testSettings: human
measuredProperty: Alkaline Phosphatase Increase - Number of Reports

1. CCOC(=O)[C@H](CCc1ccccc1)N[C@@H](C)C(=O)N1Cc2ccccc2C[C@H]1C(=O)O = >= 4
2. CCn1cc(C(=O)O)c(=O)c2cc(F)c(N3CCNCC3)cc21 [NORFLOXACIN] = >= 4
3. CCc1cccc2c3c([nH]c12)C(CC)(CC(=O)O)OCC3 (stereo not drawn) [ETODOLAC] = >= 4
4. CCCCCCC(C)(C)c1cc(O)c2c(c1)OC(C)(C)C1CCC(=O)CC21 (stereo not drawn) [NABILONE] = < 4
5. C[C@]12CC[C@@H]3c4ccc(OC(=O)N(CCCl)CCCl)cc4CC[C@H]3[C@@H]1CC[C@@H]2O [ESTRAMUSTINE] = < 4
6. CCN1CCN(C(=O)N[C@@H](C(=O)N[C@@H]2C(=O)N3C(C(=O)O)=C(CSc4nnnn4C)CS[C@H]23)c2ccc(O)cc2)C(=O)C1=O [CEFOPERAZONE] = < 4
7. O=C1CN(/N=C/c2ccc([N+](=O)[O-])o2)C(=O)N1 [NITROFURANTOIN] = >= 4
8. COc1ccccc1OCCNCC(O)COc1cccc2[nH]c3ccccc3c12 (stereo not drawn) [CARVEDILOL] = < 4
9. CCCCC[C@H](O)/C=C/[C@@H]1[C@H]2C/C(=C/CCCC(=O)O)O[C@H]2C[C@H]1O [EPOPROSTENOL] = < 4
10. Nc1ncnc2c1ncn2[C@@H]1O[C@H](CO)[C@@H](O)[C@H]1O [ADENOSINE] = < 4
11. CC(C)COCC(CN(Cc1ccccc1)c1ccccc1)N1CCCC1 (stereo not drawn) [BEPRIDIL] = < 4
12. CCOC(=O)[C@H](CCc1ccccc1)N[C@@H](C)C(=O)N1[C@H](C(=O)O)C[C@H]2CCCC[C@@H]21 [TRANDOLAPRIL] = < 4
13. C[N+](C)(C)C[C@H](O)CC(=O)[O-] [LEVOCARNITINE] = < 4
14. CCCCCCCN(CC)CCCC(O)c1ccc(NS(C)(=O)=O)cc1 (stereo not drawn) [IBUTILIDE] = < 4
15. CC1=C(/C=C/C(C)=C/C=C/C(C)=C\C(=O)O)C(C)(C)CCC1 [ISOTRETINOIN] = >= 4
16. CC(C)NCC(O)COc1ccc(CC(N)=O)cc1 (stereo not drawn) [ATENOLOL] = < 4
17. Clc1ccc2nsnc2c1NC1=NCCN1 [TIZANIDINE] = < 4
18. O=C(O)c1cc(/N=N/c2ccc(O)c(C(=O)O)c2)ccc1O [OLSALAZINE] = < 4
19. CC(C)(C)NC(=O)[C@@H]1C[C@@H]2CCCC[C@@H]2CN1C[C@@H](O)[C@H](Cc1ccccc1)NC(=O)[C@H](CC(N)=O)NC(=O)c1ccc2ccccc2n1 = < 4
20. Clc1ccc(C(Cn2ccnc2)OCc2ccsc2Cl)c(Cl)c1 (stereo not drawn) [TIOCONAZOLE] = < 4
21. CCCCCCCCCC(=O)CC(=O)O[C@H]1CC[C@H]2[C@@H]3CCC4=CC(=O)CC[C@]4(C)[C@H]3CC[C@]12C [TESTOSTERONE KETOLAURATE] = < 4
22. CC1=C(/C=C/C(C)=C/C=C/C(C)=C/C(=O)O)C(C)(C)CCC1 [TRETINOIN] = < 4
23. CC(C)(C)c1ccc(C(O)CCCN2CCC(C(O)(c3ccccc3)c3ccccc3)CC2)cc1 (stereo not drawn) [TERFENADINE] = >= 4
